Attribution: patent US12403128B2

- Tested on: 6 Hz psychomotor seizures
- Test details: 6 Hz psychomotor seizure test, mice
- Type: in vivo
- Condition summary: IP, (14 mA) [sic], Table 14

Compound: O=C1NC(=O)C(c2ccccc2)(c2ccccc2)N1 [Phenytoin, reference compound]
6 Hz (14 mA) ED50: None
--
Compound: CCC1(C)CC(=O)NC1=O (stereo not shown) [Ethosuximide, reference compound]
6 Hz (14 mA) ED50: None
--
Compound: NC(=O)N1c2ccccc2C=Cc2ccccc21 [Carbamazepine, reference compound]
6 Hz (14 mA) ED50: None
--
Compound: Nc1nnc(-c2cccc(Cl)c2Cl)c(N)n1 [Lamotrigine, reference compound]
6 Hz (14 mA) ED50: None

---

- Test details: Solubility
- Format: physicochemical
- Condition summary: pH 7.4, aqueous buffer
Result type: solubility (µM)
Numbers only, in µM.

Which value of solubility has been reported for "c1ccc(-c2c[nH]c(-c3ccccc3)n2)cc1" in the records?
175

---

- Target of assay: NaV1.7 (Homo sapiens)
- Sequence (Q15858 whole entry): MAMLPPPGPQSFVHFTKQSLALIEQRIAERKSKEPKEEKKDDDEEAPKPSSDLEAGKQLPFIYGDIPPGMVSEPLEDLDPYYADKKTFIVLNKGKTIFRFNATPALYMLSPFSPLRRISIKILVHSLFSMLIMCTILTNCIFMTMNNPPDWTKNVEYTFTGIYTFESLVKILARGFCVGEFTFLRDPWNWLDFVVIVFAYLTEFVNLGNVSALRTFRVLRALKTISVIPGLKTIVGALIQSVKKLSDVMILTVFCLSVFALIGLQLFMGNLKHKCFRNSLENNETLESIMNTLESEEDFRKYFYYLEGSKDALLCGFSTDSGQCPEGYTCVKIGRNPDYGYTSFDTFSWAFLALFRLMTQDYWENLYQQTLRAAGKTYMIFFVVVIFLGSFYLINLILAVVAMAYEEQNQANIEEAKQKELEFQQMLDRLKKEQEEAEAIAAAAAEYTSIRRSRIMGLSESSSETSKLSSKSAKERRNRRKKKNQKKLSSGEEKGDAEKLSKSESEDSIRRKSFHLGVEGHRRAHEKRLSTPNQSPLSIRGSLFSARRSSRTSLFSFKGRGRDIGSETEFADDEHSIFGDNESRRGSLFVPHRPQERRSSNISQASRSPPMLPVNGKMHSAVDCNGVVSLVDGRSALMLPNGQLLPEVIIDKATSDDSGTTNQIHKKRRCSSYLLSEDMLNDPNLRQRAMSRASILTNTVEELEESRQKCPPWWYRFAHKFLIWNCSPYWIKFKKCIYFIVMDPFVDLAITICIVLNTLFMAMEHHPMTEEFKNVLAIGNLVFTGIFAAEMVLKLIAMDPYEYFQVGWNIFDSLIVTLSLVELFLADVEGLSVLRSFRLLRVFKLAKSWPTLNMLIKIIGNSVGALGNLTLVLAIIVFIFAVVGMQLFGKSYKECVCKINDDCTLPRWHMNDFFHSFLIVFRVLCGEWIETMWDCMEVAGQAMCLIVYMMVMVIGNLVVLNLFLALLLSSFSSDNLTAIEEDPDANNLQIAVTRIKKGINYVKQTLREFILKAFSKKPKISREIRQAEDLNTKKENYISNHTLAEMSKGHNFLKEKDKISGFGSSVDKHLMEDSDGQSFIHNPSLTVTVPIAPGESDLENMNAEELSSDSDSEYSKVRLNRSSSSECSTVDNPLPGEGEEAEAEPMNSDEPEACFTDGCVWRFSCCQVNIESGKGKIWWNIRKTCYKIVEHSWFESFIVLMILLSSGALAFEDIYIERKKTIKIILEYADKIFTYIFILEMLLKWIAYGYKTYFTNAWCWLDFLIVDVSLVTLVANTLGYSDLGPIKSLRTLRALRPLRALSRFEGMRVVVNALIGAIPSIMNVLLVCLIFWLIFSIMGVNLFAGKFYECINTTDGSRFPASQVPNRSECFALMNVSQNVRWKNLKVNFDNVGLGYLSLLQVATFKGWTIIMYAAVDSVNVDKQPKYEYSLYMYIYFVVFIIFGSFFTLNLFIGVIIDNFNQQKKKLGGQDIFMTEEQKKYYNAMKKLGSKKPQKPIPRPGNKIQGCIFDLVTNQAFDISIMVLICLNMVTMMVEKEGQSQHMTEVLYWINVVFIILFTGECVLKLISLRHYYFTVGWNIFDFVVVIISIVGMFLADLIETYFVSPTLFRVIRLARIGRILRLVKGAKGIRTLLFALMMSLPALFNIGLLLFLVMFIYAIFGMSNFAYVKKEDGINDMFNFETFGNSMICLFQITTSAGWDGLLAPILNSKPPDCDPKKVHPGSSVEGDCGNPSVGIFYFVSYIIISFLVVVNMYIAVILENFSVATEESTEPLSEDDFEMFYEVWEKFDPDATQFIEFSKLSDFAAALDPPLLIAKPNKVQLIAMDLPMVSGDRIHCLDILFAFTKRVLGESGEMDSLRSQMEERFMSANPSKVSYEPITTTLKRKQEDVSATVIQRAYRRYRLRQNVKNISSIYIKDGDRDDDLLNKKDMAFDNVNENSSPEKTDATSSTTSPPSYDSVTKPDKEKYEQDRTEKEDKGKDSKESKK
- Test details: High-throughput flux assay, NaV1.7;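 note: IC50 from the flux assay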
- Assay type: cell-based
- Condition summary: human isoform
Structures can show the parent of a compound that is named as a salt.
Result type: pIC50
Answers are plain numbers, as −log10 of the molar value.

Compound: COc1ccc(-c2nc(C)c(-c3ccccc3)[nH]2)cc1 [MV1501, hydrochloride]
Endpoint result: 5.10
//
Compound: Cc1nc(-c2cccc(C(F)(F)F)c2)[nH]c1-c1ccccc1 [MV1504, hydrochloride]
Endpoint result: 5.24
//
Compound: Cc1nc(-c2cccc(Cl)c2)[nH]c1-c1ccccc1
Endpoint result: 5.28
//
Compound: CC(=O)Nc1ccc(-c2nc(C)c(-c3ccccc3)[nH]2)cc1 [MV1509, hydrochloride]
Endpoint result: 4.62
//
Compound: COc1ccc(-c2nc(C)c(-c3ccccc3)[nH]2)cc1O [MV1508, hydrochloride]
Endpoint result: 5.34

Which value of pIC50 has been reported for Cc1nc(-c2ccc(Cl)cc2)[nH]c1-c1ccccc1 [MV1502, hydrochloride] in the records?
5.32

---

- Target of assay: Nav1.6 (Homo sapiens, UniProt Q9UQD0)
- Sequence (Q9UQD0 whole entry): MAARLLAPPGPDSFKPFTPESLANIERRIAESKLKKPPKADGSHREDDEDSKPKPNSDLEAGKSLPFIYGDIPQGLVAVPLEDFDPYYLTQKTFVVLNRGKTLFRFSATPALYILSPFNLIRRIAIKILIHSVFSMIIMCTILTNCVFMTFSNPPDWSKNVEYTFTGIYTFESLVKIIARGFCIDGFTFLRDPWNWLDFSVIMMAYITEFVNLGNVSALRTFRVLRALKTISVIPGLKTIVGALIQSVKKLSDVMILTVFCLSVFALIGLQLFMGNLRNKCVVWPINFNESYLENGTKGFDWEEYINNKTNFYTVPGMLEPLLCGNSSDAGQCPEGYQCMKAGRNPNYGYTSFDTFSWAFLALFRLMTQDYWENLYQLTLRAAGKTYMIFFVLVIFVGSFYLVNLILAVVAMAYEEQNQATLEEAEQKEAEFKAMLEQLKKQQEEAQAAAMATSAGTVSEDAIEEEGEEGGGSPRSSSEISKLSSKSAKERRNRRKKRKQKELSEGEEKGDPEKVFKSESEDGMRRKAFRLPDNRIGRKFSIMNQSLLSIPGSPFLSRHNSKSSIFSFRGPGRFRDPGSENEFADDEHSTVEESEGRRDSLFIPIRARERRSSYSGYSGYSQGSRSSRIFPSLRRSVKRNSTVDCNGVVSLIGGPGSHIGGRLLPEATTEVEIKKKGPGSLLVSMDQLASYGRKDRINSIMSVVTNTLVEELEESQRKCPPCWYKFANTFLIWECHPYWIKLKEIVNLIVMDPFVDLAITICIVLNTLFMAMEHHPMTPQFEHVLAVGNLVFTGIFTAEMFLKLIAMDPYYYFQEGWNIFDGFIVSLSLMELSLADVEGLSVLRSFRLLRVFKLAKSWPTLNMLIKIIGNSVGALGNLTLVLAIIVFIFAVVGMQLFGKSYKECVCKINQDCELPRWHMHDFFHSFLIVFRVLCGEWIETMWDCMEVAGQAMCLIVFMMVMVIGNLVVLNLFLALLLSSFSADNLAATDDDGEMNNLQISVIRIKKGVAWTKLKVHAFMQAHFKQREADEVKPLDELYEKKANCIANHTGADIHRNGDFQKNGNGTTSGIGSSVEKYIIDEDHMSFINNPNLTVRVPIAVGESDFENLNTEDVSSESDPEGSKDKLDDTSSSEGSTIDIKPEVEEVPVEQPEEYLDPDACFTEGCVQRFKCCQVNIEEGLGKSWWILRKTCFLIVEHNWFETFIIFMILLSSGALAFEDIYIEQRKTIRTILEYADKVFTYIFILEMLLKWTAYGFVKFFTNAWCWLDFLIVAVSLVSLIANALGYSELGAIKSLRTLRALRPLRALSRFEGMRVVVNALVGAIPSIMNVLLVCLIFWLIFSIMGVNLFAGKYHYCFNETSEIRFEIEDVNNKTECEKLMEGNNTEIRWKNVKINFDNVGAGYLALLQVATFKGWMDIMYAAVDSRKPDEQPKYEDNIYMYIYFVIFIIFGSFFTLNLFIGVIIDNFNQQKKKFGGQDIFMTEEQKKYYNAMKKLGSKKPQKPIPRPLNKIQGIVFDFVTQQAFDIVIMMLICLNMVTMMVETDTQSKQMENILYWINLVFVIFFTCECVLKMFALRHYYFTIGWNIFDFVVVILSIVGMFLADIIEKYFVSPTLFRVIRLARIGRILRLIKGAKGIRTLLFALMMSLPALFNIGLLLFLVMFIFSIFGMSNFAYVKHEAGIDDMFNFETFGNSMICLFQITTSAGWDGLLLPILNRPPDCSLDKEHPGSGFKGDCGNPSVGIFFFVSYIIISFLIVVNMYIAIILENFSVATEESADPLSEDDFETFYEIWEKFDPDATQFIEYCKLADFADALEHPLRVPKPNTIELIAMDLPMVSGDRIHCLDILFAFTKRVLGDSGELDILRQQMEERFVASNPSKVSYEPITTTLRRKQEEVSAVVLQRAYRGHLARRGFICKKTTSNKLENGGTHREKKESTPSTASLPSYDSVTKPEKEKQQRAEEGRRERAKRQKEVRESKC
- Test details: High-throughput flux assay, Nav1.6;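 note: IC50 from the flux assay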
- Format: cell-based
- Condition summary: human isoform
- Description: Evaluation of Compounds on Human Isoforms Using a High-Throughput Flux Assay Compounds were tested using a high-throughput flux assay across Nav1.5, Nav1.6 and Nav1.7.
Counter-ions that a name gives are not always drawn.
Task for the reader: assign each of the following compounds its reported IC50.
One number for each entry, in µM.

Compound: Cc1nc(-c2ccc(Cl)cc2)[nH]c1-c1ccccc1 [MV1502, hydrochloride]
Result type: IC50
Unit: µM
Endpoint result: 1.61
//
Compound: CC(=O)Nc1ccc(-c2nc(C)c(-c3ccccc3)[nH]2)cc1 [MV1509, hydrochloride]
Result type: IC50
Unit: µM
Endpoint result: 5.67
//
Compound: COc1ccc(-c2nc(C)c(-c3ccccc3)[nH]2)cc1O [MV1508, hydrochloride]
Result type: IC50
Unit: µM
Endpoint result: 1.88

I have 3 compounds here; please give me IC50 for each one.
1. Cc1nc(-c2cccc(Cl)c2)[nH]c1-c1ccccc1
2. Cc1nc(-c2cccc(C(F)(F)F)c2)[nH]c1-c1ccccc1 [MV1504, hydrochloride]
3. COc1ccc(-c2nc(C)c(-c3ccccc3)[nH]2)cc1 [MV1501, hydrochloride]

1.59
2.07
2.74
